Assay: APR_HepG2_CellLoss_24hr: Apredica 24-hour HepG2 Assay for Cell Loss (AID 2282908)
Conditions: high-content imaging
Experimental: APR_HepG2_24hr is a cell-based, multiplexed-readout assay that uses HepG2, a human liver cell line, with measurements taken at 24 hours after chemical dosing in a 384-well plate.APR_HepG2_CellLoss_24hr is one of 10 assay component(s) measured or calculated from the APR_HepG2_24hr assay. […] This assay endpoint, APR_HepG2_CellLoss_24hr, was analyzed with bidirectional fitting relative to DMSO as the negative control and baseline of activity. […]
Calls of active or inactive are those of the source. Rule for the calls: active = hit-call score of the fitted dose curve at least 0.9, where 1 is the maximum; inactive = score below 0.9.
Mark one answer only. Choices: YES (active), NO (inactive)

Field: example entries. Status: answers known.
>>> category("CC(C)CCCCCCCOC(=O)CCCCC(=O)OCCCCCCCC(C)C")
"NO"
>>> category("O=c1n(CC2CO2)c(=O)n(CC2CO2)c(=O)n1CC1CO1 (stereo not drawn)")
"YES"
>>> category("CCC(C)(C)C(=O)O[C@H]1C[C@@H](C)C=C2C=C[C@H](C)[C@H](CC[C@@H]3C[C@@H](O)CC(=O)O3)[C@H]21")
"YES"

// param item: `C=CCCCCCCCCC(=O)O` ; yields the recorded call
NO

These entries and their values trace back to PubChem BioAssay (EPA / NIEHS).
